# experimental_protocol: In vitro metabolic stability in monkey liver microsomes
# Type: in vitro ADME
# Method: Measurements of metabolic stability can be performed with liver microsomes, which are known to contain the major drug-metabolizing enzymes and UDP-glucuronosyltransferase (Baranczewski et al., [2006]). The in vitro metabolic stability levels of CS7171 and JKF-034 were measured using human, monkey, and mouse liver microsomes. The metabolic half-time (T1/2) and intrinsic clearance (Clint) were assayed using LC-MS analysis. Ketanserin is a potent, orally effective antagonist of endogenous serotonin. […]
readout_name: half-life (min)
Answer with a number only, understood to be in min.

Which half-life reading was recorded for the compound O=C(c1ccc(F)cc1)C1CCN(CCn2c(=O)[nH]c3ccccc3c2=O)CC1 [Ketanserin, reference compound] ?
18.3

Reference source for all entries: paper PMC6776562
